Molecular target: T1, RXFP1 receptor (UniProt Q9HBX9 1-757, limits assumed)
T1 sequence (looked up): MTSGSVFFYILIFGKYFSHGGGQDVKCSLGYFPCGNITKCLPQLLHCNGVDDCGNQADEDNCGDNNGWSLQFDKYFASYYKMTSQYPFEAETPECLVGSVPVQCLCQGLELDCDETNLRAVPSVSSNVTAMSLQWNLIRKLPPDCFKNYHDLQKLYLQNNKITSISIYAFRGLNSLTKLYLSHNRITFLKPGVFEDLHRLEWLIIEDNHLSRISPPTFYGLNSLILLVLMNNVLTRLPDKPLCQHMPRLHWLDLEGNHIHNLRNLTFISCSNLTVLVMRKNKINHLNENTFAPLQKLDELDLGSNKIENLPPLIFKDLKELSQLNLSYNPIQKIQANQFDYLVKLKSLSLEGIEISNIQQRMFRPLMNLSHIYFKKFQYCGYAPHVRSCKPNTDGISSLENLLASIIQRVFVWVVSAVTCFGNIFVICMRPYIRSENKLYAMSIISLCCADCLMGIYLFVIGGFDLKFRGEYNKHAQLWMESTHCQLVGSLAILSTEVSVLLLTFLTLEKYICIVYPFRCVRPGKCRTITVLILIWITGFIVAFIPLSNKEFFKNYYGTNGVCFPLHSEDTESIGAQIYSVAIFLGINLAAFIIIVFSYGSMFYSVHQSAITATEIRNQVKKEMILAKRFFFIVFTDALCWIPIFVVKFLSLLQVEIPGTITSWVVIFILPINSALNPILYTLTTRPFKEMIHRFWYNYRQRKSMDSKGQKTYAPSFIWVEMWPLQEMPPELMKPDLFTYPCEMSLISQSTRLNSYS
Assay: cell-based or functional assay
*1 amine or outer side, *2 acyl side, *3 side chain or, on linkers, in order; H or OH if unused. Primed or numbered codes have the meaning given here. Side-chain parts run from the residue outwards. [ ]: non-standard residue; d: D form. The star is where a group is joined. PEG2DGA = 2-[2-[3-[2-[2-(3-aminopropoxy)ethoxy]ethoxy]propylamino-2-oxo-ethoxy]acetyl; TTDS″ = 4-[3-[2-[2-(3-aminopropoxy)ethoxy]ethoxy]propylamino]-4-oxo-butanoyl; γGlu = O=C(O)[C@H](CCC(=O)[*:2])N[*:1]; 1Nal = N[C@@H](Cc1cccc2ccccc12)C(=O)O; Stearoyl = CCCCCCCCCCCCCCCCCC(=O)*; Palmitoyl = CCCCCCCCCCCCCCCC(=O)*; Nle = CCCC[C@H](N)C(=O)O; PEG2′ = PEG2 spacer unit; PEG2″ = not defined here; Aib = CC(C)(N)C(=O)O
readoutLabel: EMax, OVCAR 5 cells (cAMP) (%)

binder	EMax, OVCAR 5 cells (cAMP) / %
Ac-LEGREKVRAK(Ac)I[Aib][Aib]EG[Nle]ST[1Nal]S[Aib]RKK(Ac)K([PEG2′-PEG2′-PEG2′-γGlu-γGlu-γGlu-Stearoyl])-NH2 [peptide of SEQ ID NO: 84]	76
Ac-LEGREKVRAQI[Aib][Aib]EG[Nle]STWS[Aib]RKKK[PEG2″][PEG2″][PEG2″][γGlu][γGlu]K([γGlu-Palmitoyl])-NH2 [peptide of SEQ ID NO: 109]	98
Ac-LEGREKVRAK(Ac)I[Aib][Aib]EG[Nle]STWS[Aib]RKK(Ac)K([TTDS″-TTDS″-γGlu-γGlu-γGlu-Palmitoyl])-NH2 [peptide of SEQ ID NO: 166]	92
Ac-LEGREKVRAK(Ac)I[Aib][Aib]EGQSTYS[Aib]RKK(Ac)[PEG2′][PEG2′][PEG2′]K([γGlu-γGlu-γGlu-Palmitoyl])-NH2 [peptide of SEQ ID NO: 179]	80
Ac-LEGREKVRAK(Ac)I[Aib][Aib]EG[Nle]STWS[Aib]RKK(Ac)K([PEG2DGA-PEG2DGA-PEG2DGA-γGlu-γGlu-γGlu-Stearoyl])-NH2 [peptide of SEQ ID NO: 96]	89
Ac-LEGREKVRAQI[Aib][Aib]EG[Nle]STWS[Aib]RKKK([PEG2″-PEG2″-γGlu-γGlu-γGlu-Stearoyl])-NH2 [peptide of SEQ ID NO: 71]	87
LEGREKVRAXIXXEGQSTWSXRKKX (Ac-L-E-G-R-E-K-V-R-A-K(Ac)-I-Aib-Aib-E-G-Q-S-T-W-S-Aib-R-K-K-K(PEG2-PEG2-PEG2-gE-gE-gE-gE-gE-Stea)-NH2) [peptide of SEQ ID NO: 111]	92
Ac-LEGREKVRAK(Ac)I[Aib][Aib]EG[Nle]STWS[Aib]RKK(Ac)[PEG2″][PEG2″][PEG2″]K([γGlu-γGlu-γGlu-Palmitoyl])-NH2 [peptide of SEQ ID NO: 114]	90
Ac-ELEGREKVRAAI[Aib][Aib]EG[Nle]STWS[Aib]RKK([PEG2′-PEG2′-γGlu-γGlu-Palmitoyl])-NH2 [peptide of SEQ ID NO: 57]	93
